tested on: H3255; test: relative viability (nuclei count vs DMSO), 5 days (fraction); higher = more cells survive; conditions: first compound 0.5 µM
measured quantity: relative viability
Number only, please.

Q. Short answer please: relative viability, H3255, entry CC1(C)CCC(c2ccc(Cl)cc2)=C(CN2CCN(c3ccc(C(=O)NS(=O)(=O)c4ccc(N[C@H](CCN5CCOCC5)CSc5ccccc5)c(S(=O)(=O)C(F)(F)F)c4)cc3)CC2)C1 [Navitoclax] + COc1cc2c(Oc3ccc(NC(=O)C4(C(=O)Nc5ccc(F)cc5)CC4)cc3F)ccnc2cc1OCCCN1CCOCC1 [Foretinib] (partner 0.25 µM)
A. 0.787

====

test system: NCI-H322M; assay: relative viability (nuclei count vs DMSO), 5 days (fraction); higher = more cells survive; conditions: first compound 0.08 µM
Rule: relative viability below 0.7 gives satisfied, anything at or above gives not satisfied.

// known answers, use as guide
molecule	class name
Oc1nc(-c2ccc(C(F)(F)F)cc2)nc2c1CSCC2 [XAV939] + CS(=O)(=O)CCNCc1ccc(-c2ccc3ncnc(Nc4ccc(OCc5cccc(F)c5)c(Cl)c4)c3c2)o1 [Lapatinib] (partner 2 µM)	satisfied
Oc1nc(-c2ccc(C(F)(F)F)cc2)nc2c1CSCC2 [XAV939] + COc1cc2c(Oc3ccc(NC(=O)C4(C(=O)Nc5ccc(F)cc5)CC4)cc3F)ccnc2cc1OCCCN1CCOCC1 [Foretinib] (partner 0.25 µM)	not satisfied
C=C1C(=O)O[C@@H](CCCCCCCC)[C@@H]1C(=O)O [C-75] + N=C(N)NC(=N)NCCc1ccccc1 [Phenformin] (partner 250 µM)	not satisfied
Oc1nc(-c2ccc(C(F)(F)F)cc2)nc2c1CSCC2 [XAV939] + Nc1nc2[nH]cc(CCc3ccc(C(=O)N[C@@H](CCC(=O)O)C(=O)O)cc3)c2c(=O)[nH]1 [Pemetrexed] (partner 0.2 µM)	satisfied
Oc1nc(-c2ccc(C(F)(F)F)cc2)nc2c1CSCC2 [XAV939] + CC(=O)Nc1cccc(-n2c(=O)n(C3CC3)c(=O)c3c(Nc4ccc(I)cc4F)n(C)c(=O)c(C)c32)c1 [Trametinib] (partner 0.02 µM)	satisfied
Oc1nc(-c2ccc(C(F)(F)F)cc2)nc2c1CSCC2 [XAV939] + CC(C)C[C@H](NC(=O)[C@H](Cc1ccccc1)NC(=O)c1cnccn1)B(O)O [Bortezomib] (partner 0.002 µM)	not satisfied
C=C1C(=O)O[C@@H](CCCCCCCC)[C@@H]1C(=O)O [C-75] + NC(=O)Nc1cc(-c2cccc(F)c2)sc1C(=O)N[C@H]1CCCNC1 [AZD7762] (partner 0.2 µM)	satisfied
C=C1C(=O)O[C@@H](CCCCCCCC)[C@@H]1C(=O)O [C-75] + CC(=O)Nc1cccc(-n2c(=O)n(C3CC3)c(=O)c3c(Nc4ccc(I)cc4F)n(C)c(=O)c(C)c32)c1 [Trametinib] (partner 0.02 µM)	satisfied
Oc1nc(-c2ccc(C(F)(F)F)cc2)nc2c1CSCC2 [XAV939] + C[C@]1(O)C[C@@H](c2nc(-c3ccc4ccc(-c5ccccc5)nc4c3)c3c(N)nccn32)C1 [Linsitinib] (partner 1 µM)	not satisfied

Okay, next one:
Q. # check: relative viability < 0.7 for C=C1C(=O)O[C@@H](CCCCCCCC)[C@@H]1C(=O)O [C-75] + Cc1nc(NC(=O)N2CCC[C@H]2C(N)=O)sc1-c1ccnc(C(C)(C)C(F)(F)F)c1 [Alpelisib] (partner 2 µM)
A. not satisfied
